Test system: 996289-038-R-J1-PDC spheroid viability;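 also: luminescence used as a proxy for viable cell amount; spheroids exposed to compounds for seven days before viability read; percent viability relative to DMSO vehicle control as 100%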
Experiment: Anticancer human tumor 996289-038-R-J1-PDC patient-derived colon adenocarcinoma cell line growth inhibition [PI3K]
Conditions: second compound 0.0316 µM; first compound 0.1 µM; stronger effect = lower value; spheroids with HUVEC and MSC
Listed here: items and their measured viability, T/C.

| COMPOUND | TARGET ENTITY | UNIT LABEL | viability, T/C |
| --- | --- | --- | --- |
| CC(C)NCC(C(=O)N1CCN(c2ncnc3c2C(C)CC3O)CC1)c1ccc(Cl)cc1 (configuration not stated) + CC(Nc1ncnc2nc[nH]c12)c1cc2cccc(Cl)c2c(=O)n1-c1ccccc1 | 996289-038-R-J1-PDC spheroid viability | % | 80.3 |
| C=CC(=O)N1CCN(c2nc(=O)n(-c3c(C)ccnc3C(C)C)c3nc(-c4c(O)cccc4F)c(F)cc23)C(C)C1 (configuration not stated) + CC(Nc1ncnc2nc[nH]c12)c1cc2cccc(Cl)c2c(=O)n1-c1ccccc1 | 996289-038-R-J1-PDC spheroid viability | % | 97.8 |
| CC(=O)c1c(C)c2cnc(Nc3ccc(N4CCNCC4)cn3)nc2n(C2CCCC2)c1=O + Cc1nc(NC(=O)N2CCCC2C(N)=O)sc1-c1ccnc(C(C)(C)C(F)(F)F)c1 | 996289-038-R-J1-PDC spheroid viability | % | 99.8 |
| C=CC(=O)N1CCN(c2nc(=O)n(-c3c(C)ccnc3C(C)C)c3nc(-c4c(O)cccc4F)c(F)cc23)C(C)C1 (configuration not stated) + Cc1nc(NC(=O)N2CCCC2C(N)=O)sc1-c1ccnc(C(C)(C)C(F)(F)F)c1 | 996289-038-R-J1-PDC spheroid viability | % | 107 |
| CC(=O)c1c(C)c2cnc(Nc3ccc(N4CCNCC4)cn3)nc2n(C2CCCC2)c1=O + CC(Nc1ccc2c(c1)OCCn1cc(N3C(=O)OCC3C(F)F)nc1-2)C(N)=O | 996289-038-R-J1-PDC spheroid viability | % | 81.2 |
| CC(C)NCC(C(=O)N1CCN(c2ncnc3c2C(C)CC3O)CC1)c1ccc(Cl)cc1 (configuration not stated) + COc1c(OCCCN2CCOCC2)ccc2c3n(c(=NC(=O)c4cnc(N)nc4)nc12)CCN3 | 996289-038-R-J1-PDC spheroid viability | % | 77.1 |
| CCN1CCN(Cc2ccc(Nc3ncc(F)c(-c4cc(F)c5nc(C)n(C(C)C)c5c4)n3)nc2)CC1 + COc1c(OCCCN2CCOCC2)ccc2c3n(c(=NC(=O)c4cnc(N)nc4)nc12)CCN3 | 996289-038-R-J1-PDC spheroid viability | % | 57.3 |
| C[C@@H](NC(=O)c1ncnc(N)c1Cl)c1ncc(C(=O)Nc2cc(C(F)(F)F)c(Cl)cn2)s1 + COc1c(OCCCN2CCOCC2)ccc2c3n(c(=NC(=O)c4cnc(N)nc4)nc12)CCN3 | 996289-038-R-J1-PDC spheroid viability | % | 78.9 |
| Cn1ncc(Cl)c1-c1cc(C(=O)NC(CN)Cc2cccc(F)c2)sc1Cl (configuration not stated) + Cc1nc(NC(=O)N2CCCC2C(N)=O)sc1-c1ccnc(C(C)(C)C(F)(F)F)c1 | 996289-038-R-J1-PDC spheroid viability | % | 91.2 |
| CC(C)n1nc(-c2ccc3oc(N)nc3c2)c2c(N)ncnc21 + COc1c(OCCCN2CCOCC2)ccc2c3n(c(=NC(=O)c4cnc(N)nc4)nc12)CCN3 | 996289-038-R-J1-PDC spheroid viability | % | 25.1 |
| CNC(=O)c1ccc(N2C(=S)N(c3ccc(C#N)c(C(F)(F)F)c3)C(=O)C2(C)C)cc1F + CC(Nc1ncnc2nc[nH]c12)c1cc2cccc(Cl)c2c(=O)n1-c1ccccc1 | 996289-038-R-J1-PDC spheroid viability | % | 104 |
| C#Cc1c(F)ccc2cc(O)cc(-c3ncc4c(N5CC6CCC(C5)N6)nc(OCC56CCCN5CC(F)C6)nc4c3F)c12 (configuration not stated) + COc1c(OCCCN2CCOCC2)ccc2c3n(c(=NC(=O)c4cnc(N)nc4)nc12)CCN3 | 996289-038-R-J1-PDC spheroid viability | % | 61.3 |
| CC(=O)c1c(C)c2cnc(Nc3ccc(N4CCNCC4)cn3)nc2n(C2CCCC2)c1=O + COc1c(OCCCN2CCOCC2)ccc2c3n(c(=NC(=O)c4cnc(N)nc4)nc12)CCN3 | 996289-038-R-J1-PDC spheroid viability | % | 70.6 |
| CCCS(=O)(=O)Nc1ccc(F)c(C(=O)c2c[nH]c3ncc(-c4ccc(Cl)cc4)cc23)c1F + Cc1nc(NC(=O)N2CCCC2C(N)=O)sc1-c1ccnc(C(C)(C)C(F)(F)F)c1 | 996289-038-R-J1-PDC spheroid viability | % | 86.1 |
| CCCS(=O)(=O)Nc1ccc(F)c(C(=O)c2c[nH]c3ncc(-c4ccc(Cl)cc4)cc23)c1F + COc1c(OCCCN2CCOCC2)ccc2c3n(c(=NC(=O)c4cnc(N)nc4)nc12)CCN3 | 996289-038-R-J1-PDC spheroid viability | % | 78.2 |
| C=CC(=O)N1CCN(c2nc(=O)n(-c3c(C)ccnc3C(C)C)c3nc(-c4c(O)cccc4F)c(F)cc23)C(C)C1 (configuration not stated) + CC(Nc1ccc2c(c1)OCCn1cc(N3C(=O)OCC3C(F)F)nc1-2)C(N)=O | 996289-038-R-J1-PDC spheroid viability | % | 106 |
| C[C@@H](NC(=O)c1ncnc(N)c1Cl)c1ncc(C(=O)Nc2cc(C(F)(F)F)c(Cl)cn2)s1 + CC(Nc1ncnc2nc[nH]c12)c1cc2cccc(Cl)c2c(=O)n1-c1ccccc1 | 996289-038-R-J1-PDC spheroid viability | % | 102 |
